Species: Homo sapiens
Assay: Inhibition of human recombinant BZD receptor at 10 uM by radioligand binding assay
Activity calls are given as the source filed them. The rule behind the calls is not given here.
The reply should name one outcome from Yes = active, No = inactive

{"chemSmiles": "Cc1cc(C(N)=O)ccc1-c1c(CCC(=O)O)ccn1-c1ccc(-n2ccnc2)cc1", "label": "No"}
{"chemSmiles": "Cc1cc(C(N)=O)ccc1-c1c(-c2ccc(-n3ccnc3)cc2)ccn1CCC(=O)O", "label": "No"}
{"chemSmiles": "COc1ccc(-c2ccn(-c3ccc(O)c([N+](=O)[O-])c3)c2-c2ccc(C(N)=O)cc2C)cc1", "label": "Yes"}

Called result for Cc1cc(C(N)=O)ccc1-n1c(CCC(=O)O)ccc1-c1ccc(-n2ccnc2)cc1 No

Called result for COc1ccc(-c2ccn(-c3ccc(C(=O)O)c(O)c3)c2-c2ccc(C(N)=O)cc2C)cc1 Yes

====

Test: Inhibition of GSNOR expressed in Escherichia coli using GSNO by cuvette method
Entries whose IC50 is below 3000 nM take fulfilled; entries at or above 3000 nM take not fulfilled.

{"compound": "COc1ccc(-c2ccn(-c3ccc(C(=O)O)cc3)c2-c2ccc(C(N)=O)cc2C)cc1", "label": "fulfilled"}
{"compound": "COc1ccc(-c2ccn(CCC(=O)O)c2-c2ccc(C(N)=O)cc2C)cc1", "label": "fulfilled"}
{"compound": "COc1ccc(-c2ccn(-c3ccc(C(=O)O)c(Cl)c3)c2-c2ccc(C(N)=O)cc2C)cc1", "label": "not fulfilled"}

Given Cc1cc(C(N)=O)ccc1-n1c(CCC(=O)O)ccc1-c1ccc(-n2ccnc2)cc1 [N6022] , is recorded IC50 strictly lower than 3000 nM? fulfilled

Given COc1ccc(-c2ccn(C(CC(=O)O)c3ccccc3)c2-c2ccc(C(N)=O)cc2C)cc1 (configuration not stated) , is recorded IC50 strictly lower than 3000 nM? not fulfilled

Given COc1ccc(-c2ccn(-c3ccc(C(=O)O)cn3)c2-c2ccc(C(N)=O)cc2C)cc1 , is recorded IC50 strictly lower than 3000 nM? not fulfilled

Given COc1ccc(-c2ccn(CC(F)(F)C(=O)O)c2-c2ccc(C(N)=O)cc2C)cc1 , is recorded IC50 strictly lower than 3000 nM? fulfilled

====

Target: UniProt O43603
Sequence (O43603 whole entry): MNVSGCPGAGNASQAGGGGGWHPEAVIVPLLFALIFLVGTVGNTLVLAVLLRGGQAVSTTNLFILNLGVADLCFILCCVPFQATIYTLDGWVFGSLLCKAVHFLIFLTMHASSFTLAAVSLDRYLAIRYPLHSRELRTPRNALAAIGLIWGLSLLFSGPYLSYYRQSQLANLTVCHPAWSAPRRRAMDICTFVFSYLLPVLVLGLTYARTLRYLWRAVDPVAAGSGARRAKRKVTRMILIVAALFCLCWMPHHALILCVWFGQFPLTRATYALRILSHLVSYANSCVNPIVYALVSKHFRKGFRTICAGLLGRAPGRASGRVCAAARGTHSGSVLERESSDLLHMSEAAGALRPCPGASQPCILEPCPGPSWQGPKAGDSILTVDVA
Test: Inhibition of human recombinant GAL2 receptor at 10 uM by radioligand binding assay
Calls of active or inactive are those of the source. The rule behind the calls is not given here.
parameter: inhibition

{"chemSmiles": "COc1ccc(-c2ccn(-c3ccc(C(=O)O)c(O)c3)c2-c2ccc(C(N)=O)cc2C)cc1", "inhibition": "Active"}
{"chemSmiles": "Cc1cc(C(N)=O)ccc1-c1c(CCC(=O)O)ccn1-c1ccc(-n2ccnc2)cc1", "inhibition": "inactive"}
{"chemSmiles": "Cc1cc(C(N)=O)ccc1-n1c(CCC(=O)O)ccc1-c1ccc(-n2ccnc2)cc1", "inhibition": "inactive"}
{"chemSmiles": "Cc1cc(C(N)=O)ccc1-c1c(-c2ccc(-n3ccnc3)cc2)ccn1CCC(=O)O", "inhibition": "inactive"}

Give inhibition for COc1ccc(-c2ccn(-c3ccc(O)c([N+](=O)[O-])c3)c2-c2ccc(C(N)=O)cc2C)cc1 tested on UniProt O43603. Active

====

Biological target: Endothelin-1 receptor (Homo sapiens)
Assay: Inhibition of human recombinant ETA receptor at 10 uM by radioligand binding assay
The source made the active and inactive calls. The calls are words filed in the database; no cut-off is given here.
parameter: inhibition

{"compound": "Cc1cc(C(N)=O)ccc1-c1c(-c2ccc(-n3ccnc3)cc2)ccn1CCC(=O)O", "experimentalResult": "inactive"}
{"compound": "COc1ccc(-c2ccn(-c3ccc(C(=O)O)c(O)c3)c2-c2ccc(C(N)=O)cc2C)cc1", "experimentalResult": "Active"}
{"compound": "Cc1cc(C(N)=O)ccc1-c1c(CCC(=O)O)ccn1-c1ccc(-n2ccnc2)cc1", "experimentalResult": "inactive"}
{"compound": "COc1ccc(-c2ccn(-c3ccc(O)c([N+](=O)[O-])c3)c2-c2ccc(C(N)=O)cc2C)cc1", "experimentalResult": "Active"}

Continue with the compound presented below.
Tell us which inhibition value is on record for Cc1cc(C(N)=O)ccc1-n1c(CCC(=O)O)ccc1-c1ccc(-n2ccnc2)cc1 [N6022] inactive

====

Molecular target: 5-hydroxytryptamine receptor 3A (Homo sapiens)
Assay: Inhibition of human recombinant 5HT3 receptor at 10 uM by radioligand binding assay
Activity calls are given as the source filed them. No cut-off for these calls is given here.
The reply should name one outcome from active, inactive

Called result for COc1ccc(-c2ccn(-c3ccc(C(=O)O)c(O)c3)c2-c2ccc(C(N)=O)cc2C)cc1 active

Called result for Cc1cc(C(N)=O)ccc1-c1c(CCC(=O)O)ccn1-c1ccc(-n2ccnc2)cc1 inactive

Called result for COc1ccc(-c2ccn(-c3ccc(O)c([N+](=O)[O-])c3)c2-c2ccc(C(N)=O)cc2C)cc1 active

Called result for Cc1cc(C(N)=O)ccc1-c1c(-c2ccc(-n3ccnc3)cc2)ccn1CCC(=O)O inactive

Called result for Cc1cc(C(N)=O)ccc1-n1c(CCC(=O)O)ccc1-c1ccc(-n2ccnc2)cc1 inactive

====

Species: Homo sapiens
Experiment: Inhibition of human recombinant GABA receptor at 10 uM by radioligand binding assay
The source made the active and inactive calls. The rule behind the calls is not given here.
parameter: inhibition

{"compound": "COc1ccc(-c2ccn(-c3ccc(O)c([N+](=O)[O-])c3)c2-c2ccc(C(N)=O)cc2C)cc1", "inhibition": "Active"}
{"compound": "Cc1cc(C(N)=O)ccc1-c1c(-c2ccc(-n3ccnc3)cc2)ccn1CCC(=O)O", "inhibition": "inactive"}
{"compound": "Cc1cc(C(N)=O)ccc1-c1c(CCC(=O)O)ccn1-c1ccc(-n2ccnc2)cc1", "inhibition": "inactive"}
{"compound": "Cc1cc(C(N)=O)ccc1-n1c(CCC(=O)O)ccc1-c1ccc(-n2ccnc2)cc1 [N6022]", "inhibition": "inactive"}

Tell us which inhibition value is on record for COc1ccc(-c2ccn(-c3ccc(C(=O)O)c(O)c3)c2-c2ccc(C(N)=O)cc2C)cc1 Active

====

Biological target: B2 bradykinin receptor (Homo sapiens) (UniProt P30411)
Sequence (P30411 whole entry): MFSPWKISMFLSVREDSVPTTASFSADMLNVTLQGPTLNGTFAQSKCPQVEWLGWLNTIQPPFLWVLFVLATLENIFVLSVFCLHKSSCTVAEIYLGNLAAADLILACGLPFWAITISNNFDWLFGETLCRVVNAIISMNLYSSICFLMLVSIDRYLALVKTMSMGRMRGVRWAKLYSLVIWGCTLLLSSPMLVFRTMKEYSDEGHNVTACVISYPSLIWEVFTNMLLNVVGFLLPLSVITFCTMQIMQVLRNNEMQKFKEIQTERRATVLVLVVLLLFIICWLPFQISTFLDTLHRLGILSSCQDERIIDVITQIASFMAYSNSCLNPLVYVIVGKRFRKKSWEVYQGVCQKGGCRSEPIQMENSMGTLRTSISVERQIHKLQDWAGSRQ
Test: Inhibition of human recombinant B2 bradykinin receptor at 10 uM by radioligand binding assay
Active and inactive are the calls of the source. The calls are words filed in the database; no cut-off is given here.
The reply should name one outcome from yes (1) (active), no (0) (inactive)

The following molecules have reported results that may help.
{"chemSmiles": "COc1ccc(-c2ccn(-c3ccc(O)c([N+](=O)[O-])c3)c2-c2ccc(C(N)=O)cc2C)cc1", "subjectOfTest": "B2 bradykinin receptor (Homo sapiens) (UniProt P30411)", "label": "yes (1)"}
{"chemSmiles": "Cc1cc(C(N)=O)ccc1-c1c(CCC(=O)O)ccn1-c1ccc(-n2ccnc2)cc1", "subjectOfTest": "B2 bradykinin receptor (Homo sapiens) (UniProt P30411)", "label": "no (0)"}

Called result for COc1ccc(-c2ccn(-c3ccc(C(=O)O)c(O)c3)c2-c2ccc(C(N)=O)cc2C)cc1 yes (1)

Called result for Cc1cc(C(N)=O)ccc1-c1c(-c2ccc(-n3ccnc3)cc2)ccn1CCC(=O)O no (0)

Called result for Cc1cc(C(N)=O)ccc1-n1c(CCC(=O)O)ccc1-c1ccc(-n2ccnc2)cc1 no (0)

====

Target: Voltage-gated L-type calcium channel (Homo sapiens, UniProt Q13936+Q13698+Q01668+O60840)
Test: Inhibition of human recombinant L-type Ca2+ channel at 10 uM by radioligand binding assay
parameter: inhibition (INH)

Known inhibition (INH) results, listed for orientation:
{"compound": "Cc1cc(C(N)=O)ccc1-c1c(-c2ccc(-n3ccnc3)cc2)ccn1CCC(=O)O", "inhibition (INH)": "Not Active"}
{"compound": "COc1ccc(-c2ccn(-c3ccc(C(=O)O)c(O)c3)c2-c2ccc(C(N)=O)cc2C)cc1", "inhibition (INH)": "Active"}
{"compound": "Cc1cc(C(N)=O)ccc1-c1c(CCC(=O)O)ccn1-c1ccc(-n2ccnc2)cc1", "inhibition (INH)": "Not Active"}
{"compound": "COc1ccc(-c2ccn(-c3ccc(O)c([N+](=O)[O-])c3)c2-c2ccc(C(N)=O)cc2C)cc1", "inhibition (INH)": "Active"}

Continue with the compound presented below.
Tell us which inhibition (INH) value is on record for Cc1cc(C(N)=O)ccc1-n1c(CCC(=O)O)ccc1-c1ccc(-n2ccnc2)cc1 [N6022] Not Active

====

Target: C-C chemokine receptor type 1 (Homo sapiens) (UniProt P32246)
Sequence (P32246 whole entry): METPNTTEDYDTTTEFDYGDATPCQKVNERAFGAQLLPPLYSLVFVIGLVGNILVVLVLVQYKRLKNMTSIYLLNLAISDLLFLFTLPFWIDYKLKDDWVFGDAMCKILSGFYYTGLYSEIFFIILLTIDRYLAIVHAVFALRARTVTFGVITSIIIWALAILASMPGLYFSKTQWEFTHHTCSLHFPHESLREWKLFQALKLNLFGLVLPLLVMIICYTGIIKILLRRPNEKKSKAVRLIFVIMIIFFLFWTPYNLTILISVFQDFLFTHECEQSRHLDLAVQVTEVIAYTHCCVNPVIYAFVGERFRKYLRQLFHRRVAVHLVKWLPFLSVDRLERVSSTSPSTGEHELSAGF
Assay: Inhibition of human recombinant CCR1 receptor at 10 uM by radioligand binding assay
Active and inactive are the calls of the source. The rule behind the calls is not given here.
The reply should name one outcome from active, inactive

The following molecules have reported results that may help.
{"chemSmiles": "Cc1cc(C(N)=O)ccc1-n1c(CCC(=O)O)ccc1-c1ccc(-n2ccnc2)cc1", "label": "inactive"}
{"chemSmiles": "Cc1cc(C(N)=O)ccc1-c1c(-c2ccc(-n3ccnc3)cc2)ccn1CCC(=O)O", "label": "inactive"}
{"chemSmiles": "Cc1cc(C(N)=O)ccc1-c1c(CCC(=O)O)ccn1-c1ccc(-n2ccnc2)cc1", "label": "inactive"}
{"chemSmiles": "COc1ccc(-c2ccn(-c3ccc(C(=O)O)c(O)c3)c2-c2ccc(C(N)=O)cc2C)cc1", "label": "active"}

Now let's try a different one.
Called result for COc1ccc(-c2ccn(-c3ccc(O)c([N+](=O)[O-])c3)c2-c2ccc(C(N)=O)cc2C)cc1 active
